assay: Cell viability in HSF cells at 50 uM after 24 hrs by MTT assay; type: cell-based, Fibroblast; conditions: human, read-out: Activity
Kindly supply the reported viability at 24 h, 50 µM values for the records listed here.
Numbers only, in %.

Answered cases to consult:
# chemical-smiles, outcome-measure, experimental-value
data = [
    ("Cc1ccccc1N1CCn2c1n[nH]c(=O)c2=O", "viability at 24 h, 50 µM", 110),
    ("O=c1[nH]nc2n(c1=O)CCN2c1cccc(Cl)c1", "viability at 24 h, 50 µM", 91),
    ("N=c1c(=O)[nH]nc2n1CCN2c1ccccc1Cl", "viability at 24 h, 50 µM", 104),
    ("O=c1[nH]nc2n(c1=O)CCN2c1ccc(Cl)cc1", "viability at 24 h, 50 µM", 95),
]

// each compound listed below needs its viability at 24 h, 50 µM
1. O=c1[nH]nc2n(c1=O)CCN2c1ccc(Cl)c(Cl)c1
2. N=c1c(=O)[nH]nc2n1CCN2c1ccccc1
3. COc1ccc(N2CCn3c2n[nH]c(=O)c3=O)cc1

1: 90; 2: 103; 3: 92

---

system: HeLa; assay: Cytotoxicity against human HeLa cells at 10 ug/ml after 72 hrs; type: functional
outcome-measure: inhibition at 10 µg/mL (%)
Numbers only, in %.

Answered cases to consult:
# chemical-smiles, inhibition at 10 µg/mL / %
records = [
    ("N=c1c(=O)[nH]nc2n1CCN2c1ccccc1", 30),
    ("Cc1ccc(N2CCN/C2=N\\N)cc1", 3),
    ("N=c1c(=O)[nH]nc2n1CCN2c1ccc(Cl)cc1", 8),
]

// each molecule listed below needs its inhibition at 10 µg/mL
1. O=c1[nH]nc2n(c1=O)CCN2c1ccc(Cl)cc1
2. Cc1ccc(N2CCn3c2n[nH]c(=O)c3=N)cc1
3. Cc1ccccc1N1CCn2c1n[nH]c(=O)c2=O

2
0
0

// each molecule listed below needs its inhibition at 10 µg/mL
1. Cc1cccc(N2CCn3c2n[nH]c(=O)c3=O)c1C
2. N=c1c(=O)[nH]nc2n1CCN2c1cccc(Cl)c1
3. COc1ccc(N2CCN/C2=N\N)cc1
4. O=c1[nH]nc2n(c1=O)CCN2c1ccccc1
5. N/N=C1\NCCN1c1ccccc1Cl
6. N/N=C1\NCCN1c1cccc(Cl)c1
7. O=c1[nH]nc2n(c1=O)CCN2c1cccc(Cl)c1

1. 0
2. 6
3. 0
4. 0
5. 2
6. 0
7. 27

---

experiment: Cell viability in HSF cells at 50 uM after 24 hrs by MTT assay; type: cell-based, Fibroblast; settings: human, read-out: Activity
Kindly supply the reported viability at 24 h, 50 µM values for the records listed here.
Numbers only, in %.

# chemical-smiles, outcome-measure, experimental-value
measured = [
    ("O=c1[nH]nc2n(c1=O)CCN2c1ccccc1", "viability at 24 h, 50 µM", 95),
    ("COc1ccccc1N1CCn2c1n[nH]c(=O)c2=O", "viability at 24 h, 50 µM", 101),
    ("N=c1c(=O)[nH]nc2n1CCN2c1ccc(Cl)cc1", "viability at 24 h, 50 µM", 84),
]

Note: attention shifts to another entry.
Name the recorded viability at 24 h, 50 µM for "Cc1ccc(N2CCn3c2n[nH]c(=O)c3=O)cc1" . 97

---

experiment: Cytotoxicity against human LS180 cells at 10 ug/ml after 72 hrs; format: functional; settings: LS180, 72 h
outcome-measure: inhibition at 10 µg/mL (%)
One number for each entry, in %.

Answered cases to consult:
# chemical-smiles, readout-units, experimental-value
data = [
    ("Cc1ccc(N2CCN/C2=N\\N)cc1", "%", 11),
    ("N=c1c(=O)[nH]nc2n1CCN2c1ccccc1", "%", 0),
    ("N=c1c(=O)[nH]nc2n1CCN2c1ccccc1Cl", "%", 6),
    ("O=c1[nH]nc2n(c1=O)CCN2c1ccccc1", "%", 0),
    ("Cc1ccc(N2CCn3c2n[nH]c(=O)c3=O)cc1", "%", 2),
]

// each compound listed below needs its inhibition at 10 µg/mL
1. N/N=C1\NCCN1c1cccc(Cl)c1
2. N=c1c(=O)[nH]nc2n1CCN2c1ccc(Cl)cc1
3. N/N=C1\NCCN1c1ccccc1Cl
4. Cc1cccc(N2CCN/C2=N\N)c1C
5. N/N=C1\NCCN1c1ccccc1

1. 8
2. 0
3. 7
4. 6
5. 1

// each compound listed below needs its inhibition at 10 µg/mL
1. Cc1cccc(N2CCn3c2n[nH]c(=O)c3=O)c1C
2. Cc1ccc(N2CCn3c2n[nH]c(=O)c3=N)cc1
3. O=c1[nH]nc2n(c1=O)CCN2c1cccc(Cl)c1
4. Cc1ccccc1N1CCn2c1n[nH]c(=O)c2=O
5. COc1ccccc1N1CCn2c1n[nH]c(=O)c2=O

1: 0; 2: 32; 3: 0; 4: 0; 5: 30

// each compound listed below needs its inhibition at 10 µg/mL
1. COc1ccc(N2CCN/C2=N\N)cc1
2. O=c1[nH]nc2n(c1=O)CCN2c1ccc(Cl)cc1

4
50

// each compound listed below needs its inhibition at 10 µg/mL
1. N=c1c(=O)[nH]nc2n1CCN2c1cccc(Cl)c1
2. COc1ccc(N2CCn3c2n[nH]c(=O)c3=O)cc1

1. 0
2. 0

---

assay: Cytotoxicity against Vero cells at 10 ug/ml after 72 hrs; type: cell-based; settings: chlorocebus sabaeus, read-out: Inhibition
outcome-measure: cytotoxicity at 72 h, 10 ug/ml

Answered cases to consult:
# chemical-smiles, cytotoxicity at 72 h, 10 ug/ml
rows = [
    ("N=c1c(=O)[nH]nc2n1CCN2c1cccc(Cl)c1", "0%"),
    ("COc1ccc(N2CCn3c2n[nH]c(=O)c3=O)cc1", "0%"),
    ("N=c1c(=O)[nH]nc2n1CCN2c1ccc(Cl)cc1", "0%"),
    ("N=c1c(=O)[nH]nc2n1CCN2c1ccccc1Cl", "0%"),
    ("Cc1ccc(N2CCn3c2n[nH]c(=O)c3=N)cc1", "0%"),
]

// each compound listed below needs its cytotoxicity at 72 h, 10 ug/ml
1. O=c1[nH]nc2n(c1=O)CCN2c1ccccc1
2. N=c1c(=O)[nH]nc2n1CCN2c1ccccc1
3. O=c1[nH]nc2n(c1=O)CCN2c1cccc(Cl)c1
4. O=c1[nH]nc2n(c1=O)CCN2c1ccc(Cl)cc1
5. Cc1ccc(N2CCN/C2=N\N)cc1
6. COc1ccccc1N1CCn2c1n[nH]c(=O)c2=O

7%
26%
11%
0%
0%
26%

// each compound listed below needs its cytotoxicity at 72 h, 10 ug/ml
1. N/N=C1\NCCN1c1ccccc1Cl
2. N/N=C1\NCCN1c1ccccc1

0%
0%

---

assay: Cytotoxicity against Vero cells at 50 ug/ml after 72 hrs; format: cell-based; conditions: chlorocebus sabaeus, read-out: Inhibition
outcome-measure: cytotoxicity at 72 h, 50 ug/ml (%)
Numbers only, in %.

Answered cases to consult:
# chemical-smiles, outcome-measure, readout-units, experimental-value
data = [
    ("N/N=C1\\NCCN1c1cccc(Cl)c1", "cytotoxicity at 72 h, 50 ug/ml", "%", 10),
    ("Cc1ccc(N2CCn3c2n[nH]c(=O)c3=N)cc1", "cytotoxicity at 72 h, 50 ug/ml", "%", 0),
    ("N/N=C1\\NCCN1c1ccccc1", "cytotoxicity at 72 h, 50 ug/ml", "%", 0),
    ("COc1ccc(N2CCN/C2=N\\N)cc1", "cytotoxicity at 72 h, 50 ug/ml", "%", 0),
    ("Cc1ccc(N2CCn3c2n[nH]c(=O)c3=O)cc1", "cytotoxicity at 72 h, 50 ug/ml", "%", 0),
    ("Cc1ccc(N2CCN/C2=N\\N)cc1", "cytotoxicity at 72 h, 50 ug/ml", "%", 9),
]

// each compound listed below needs its cytotoxicity at 72 h, 50 ug/ml
1. O=c1[nH]nc2n(c1=O)CCN2c1ccc(Cl)cc1
2. N=c1c(=O)[nH]nc2n1CCN2c1ccc(Cl)cc1

1: 7; 2: 0

// each compound listed below needs its cytotoxicity at 72 h, 50 ug/ml
1. O=c1[nH]nc2n(c1=O)CCN2c1cccc(Cl)c1
2. O=c1[nH]nc2n(c1=O)CCN2c1ccccc1
3. N=c1c(=O)[nH]nc2n1CCN2c1cccc(Cl)c1

1: 24; 2: 30; 3: 0

// each compound listed below needs its cytotoxicity at 72 h, 50 ug/ml
1. N=c1c(=O)[nH]nc2n1CCN2c1ccccc1
2. Cc1ccccc1N1CCn2c1n[nH]c(=O)c2=O
3. N/N=C1\NCCN1c1ccccc1Cl
4. Cc1cccc(N2CCN/C2=N\N)c1C
5. N=c1c(=O)[nH]nc2n1CCN2c1ccccc1Cl
6. COc1ccccc1N1CCn2c1n[nH]c(=O)c2=O
7. Cc1cccc(N2CCn3c2n[nH]c(=O)c3=O)c1C
8. COc1ccc(N2CCn3c2n[nH]c(=O)c3=O)cc1

30
0
0
14
2
17
18
10

Values from ChEMBL document CHEMBL1147867
